Assay info: Solubility of the compound in water
Type: physicochemical
Please respond with reported solubility for every item in the list.

Compound	solubility
CCCCCCCCCCCCCCCCOCC(CO[C@H]1O[C@H](CO)[C@@H](O[C@@H]2O[C@H](CO)[C@H](O)[C@H](O)[C@H]2O)[C@H](O)[C@H]1O)OC (some centres not stated)	9 µM

Consider CCCCCCCCCCCCCCCCOCC(COP(=O)(O)OC1O[C@H](CO)[C@@H](O[C@@H]2O[C@H](CO)[C@H](O)[C@H](O)[C@H]2O)[C@H](O)[C@H]1O)OC.CCN(CC)CC (some centres not stated) . Its measured solubility is 16 µM
